molecular target: hM3 (human Muscarinic receptor subtype 3) (Homo sapiens, UniProt P20309); construct: expressed in transfected cells; host or cells: CHO cells (Chinese hamster ovary cells, ATCC); assay: Human M3 calcium mobilization FLIPR assay; type: cell-based; conditions: hM3 expressed in CHO cells, intracellular Ca2+ release, read-out: hM3 EC50
Sequence (P20309 whole entry): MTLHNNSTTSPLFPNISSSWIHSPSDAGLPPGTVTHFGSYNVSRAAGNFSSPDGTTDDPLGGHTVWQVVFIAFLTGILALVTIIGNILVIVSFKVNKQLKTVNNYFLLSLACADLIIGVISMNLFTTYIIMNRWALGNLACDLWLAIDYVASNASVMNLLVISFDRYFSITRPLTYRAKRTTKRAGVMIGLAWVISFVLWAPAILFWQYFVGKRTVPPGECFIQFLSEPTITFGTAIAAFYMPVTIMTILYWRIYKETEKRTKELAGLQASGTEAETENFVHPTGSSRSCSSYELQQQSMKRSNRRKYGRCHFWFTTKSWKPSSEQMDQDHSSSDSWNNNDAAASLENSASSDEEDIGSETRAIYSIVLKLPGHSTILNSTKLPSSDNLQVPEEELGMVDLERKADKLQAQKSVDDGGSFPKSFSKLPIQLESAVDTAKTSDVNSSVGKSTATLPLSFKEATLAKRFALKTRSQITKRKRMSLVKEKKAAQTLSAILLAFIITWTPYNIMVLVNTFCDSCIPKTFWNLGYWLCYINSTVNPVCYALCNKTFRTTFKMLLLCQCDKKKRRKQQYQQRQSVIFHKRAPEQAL
pEC50: −log10 of the molar value.
# Lookup of reported pEC50 keyed by entry

Solved cases (4 shown):
- COC(=O)N1CCC(C)(N2CCC(N3C(=O)Cc4ccc(C)cc43)CC2)C1 (single isomer, unassigned) [Example 67]: < 4.48
- COC(=O)N1CCC(C)(N2CCC(n3c(=O)[nH]c4cc(F)c(F)cc43)CC2)C1 (single isomer, unassigned): < 4.40
- CC#CCOC(=O)N1CCC(C)(N2CCC(n3c(=O)[nH]c4ccc(C)cc43)CC2)C1 (single isomer, unassigned): 6.27
- CCOC(=O)N1CCC(C)(N2CCC(N3C(=O)Cc4ccccc43)CC2)C1 (single isomer, unassigned) [Example 73]: < 4.40

In plain terms, CC1(N2CCC(n3c(=O)[nH]c4cc(F)ccc43)CC2)CCN(C(=O)OCCF)C1 (single isomer, unassigned) [Example 24] has a documented pEC50 of < 4.58

###

Target: cloned human M2 receptor (human Muscarinic receptor subtype 2) (Homo sapiens)
Construct: purchased Perkin-Elmer RBHM2M; host or cells: Chinese hamster ovary cells (CHO) membranes
Sequence (P08172 whole entry): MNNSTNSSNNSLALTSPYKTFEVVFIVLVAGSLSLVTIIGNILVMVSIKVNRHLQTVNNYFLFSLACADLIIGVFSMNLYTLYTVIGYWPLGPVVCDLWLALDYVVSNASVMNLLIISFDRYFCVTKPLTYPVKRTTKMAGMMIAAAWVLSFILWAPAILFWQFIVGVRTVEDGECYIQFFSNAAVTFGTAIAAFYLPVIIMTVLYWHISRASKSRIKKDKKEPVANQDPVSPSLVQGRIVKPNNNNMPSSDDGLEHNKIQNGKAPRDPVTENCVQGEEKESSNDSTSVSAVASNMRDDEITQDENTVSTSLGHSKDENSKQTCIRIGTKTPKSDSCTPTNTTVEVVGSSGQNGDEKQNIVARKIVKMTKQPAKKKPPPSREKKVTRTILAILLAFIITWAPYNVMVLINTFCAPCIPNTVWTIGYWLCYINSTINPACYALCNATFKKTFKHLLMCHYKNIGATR
Assay: hM2 receptor GTPγS binding
Format: biochemical
Conditions: CHO cell membranes expressing hM2; [35S]GTPγS binding; read-out: hM2 EC50
Procedure: hM2 Receptor GTPγS Binding Membranes produced from Chinese hamster ovary cells (CHO) expressing the cloned human M2 receptor (human Muscarinic receptor subtype 2, gene bank access NM_000739), are obtained from Perkin-Elmer (RBHM2M). […] The EC50, IC50 and Emax of the compounds of the invention are evaluated from 10-point dose-response curves (three fold concentration range) done in 60 μl in 384-well non-specific binding surface plate (Corning). […]
Property: EC50 (nM)
# value in nM; strip the unit string

Reference set (3 entries):
• COC(=O)N1CCC(C)(N2CCC(n3c(=O)[nH]c4cc(C)ccc43)CC2)C1 (single isomer, unassigned) [Example 48] = 571
• C#CCOC(=O)N1CCC(C)(N2CCC(n3c(=O)[nH]c4cc(C)ccc43)CC2)C1 (single isomer, unassigned) [Example 44] = 26
• CCOC(=O)N1CCC(C)(N2CCC(N3C(=O)Cc4ccc(F)cc43)CC2)C1 (single isomer, unassigned) [Example 74] = 1340

Lab note: molecule CCOC(=O)N1CCC(C)(N2CCC(n3c(=O)[nH]c4cc(F)c(C)cc43)CC2)C1 (single isomer, unassigned) [Example 55] tested on cloned human M2 receptor (human Muscarinic receptor subtype 2) (Homo sapiens); recorded EC50 was 319

Fill in: cloned human M2 receptor (human Muscarinic receptor subtype 2) (Homo sapiens) EC50 for CCOC(=O)N1CCC(C)(N2CCC(N3C(=O)Cc4cc(F)c(C)cc43)CC2)C1 (single isomer, unassigned) [Example 82] = 270

CCOC(=O)N1CCC(C)(N2CCC(n3c(=O)[nH]c4ccc(C)cc43)CC2)C1 (stereo not drawn) [Example 16] tested on cloned human M2 receptor (human Muscarinic receptor subtype 2) (Homo sapiens) gave EC50: 418

Case CCOC(=O)N1CCC(C)(N2CCC(n3c(=O)[nH]c4cc(F)c(C)cc43)CC2)C1 (single isomer, unassigned) [Example 56] , cloned human M2 receptor (human Muscarinic receptor subtype 2) (Homo sapiens), EC50 recorded as 24

Entry CCOC(=O)N1CCC(C)(N2CCC(N3C(=O)Cc4ccc(C)cc43)CC2)C1 (single isomer, unassigned) [Example 70] under cloned human M2 receptor (human Muscarinic receptor subtype 2) (Homo sapiens) had EC50 of 448
